# Test System: hCA XII (Homo sapiens, UniProt O43570)
# Sequence (O43570 25-354): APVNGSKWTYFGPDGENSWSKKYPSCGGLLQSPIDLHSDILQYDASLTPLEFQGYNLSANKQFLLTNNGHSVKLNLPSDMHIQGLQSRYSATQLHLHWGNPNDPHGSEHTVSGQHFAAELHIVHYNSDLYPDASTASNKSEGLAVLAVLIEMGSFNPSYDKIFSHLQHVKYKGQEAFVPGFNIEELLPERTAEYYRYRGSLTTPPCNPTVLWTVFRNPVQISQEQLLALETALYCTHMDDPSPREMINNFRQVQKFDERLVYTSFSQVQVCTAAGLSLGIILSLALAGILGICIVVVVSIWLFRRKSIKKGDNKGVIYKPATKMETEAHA
# Test Method Notes: hCA XII inhibition, stopped-flow assay
# Assay type: biochemical
# Setup Conditions: selectivity index (SI), ratio of Ki hCA II to Ki hCA XII
Endpoint Label: Selectivity Analysis hCA II/XII

[P] NS(=O)(=O)c1ccc(CCn2c(SCC(=O)NN=Cc3ccccc3F)nc3ccccc3c2=O)cc1 [Compound 10]
[Q] CC(=NNC(=O)CSc1nc2ccccc2c(=O)n1CCc1ccc(S(N)(=O)=O)cc1)c1ccc(Cl)cc1 [Compound 23]
IN: Lab note: check whether P or Q shows the higher recorded Selectivity Analysis hCA II/XII. // caller expects the label of the chosen entry
OUT: Q
(Q: 2.56, P: 1.56)

* * *

# Test System: hCA I (Homo sapiens, UniProt P00915)
# Sequence (P00915 whole entry): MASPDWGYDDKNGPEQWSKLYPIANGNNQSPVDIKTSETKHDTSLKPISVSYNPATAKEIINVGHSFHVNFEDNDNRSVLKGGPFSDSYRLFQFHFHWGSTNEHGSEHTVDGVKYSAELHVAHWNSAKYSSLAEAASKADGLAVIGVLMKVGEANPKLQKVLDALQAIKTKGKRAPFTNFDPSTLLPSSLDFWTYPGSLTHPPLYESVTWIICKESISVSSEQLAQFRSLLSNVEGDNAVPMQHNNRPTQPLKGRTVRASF
# Test Method Notes: hCA I inhibition, stopped-flow assay
# Format: biochemical
# Setup Conditions: stopped-flow technique; mean from three different assays, errors ±5–10%
Endpoint Label: Ki (nM)

Check out these entries, answers already filled in.
Cc1ccccc1C=NNC(=O)CSc1nc2ccccc2c(=O)n1CCc1ccc(S(N)(=O)=O)cc1 [Compound 12] :: 338
NS(=O)(=O)c1ccc(CCn2c(SCC(=O)NN=Cc3ccc(F)cc3)nc3ccccc3c2=O)cc1 [Compound 11] :: 132

[P] NS(=O)(=O)c1ccc(CCn2c(SCC(=O)NN=Cc3ccc(Cl)cc3)nc3ccccc3c2=O)cc1 [Compound 6]
[Q] CC(=NNC(=O)CSc1nc2ccccc2c(=O)n1CCc1ccc(S(N)(=O)=O)cc1)c1ccc(F)cc1 [Compound 24]
[R] NS(=O)(=O)c1ccc(CCn2c(SCC(=O)NN=Cc3c(Cl)cccc3Cl)nc3ccccc3c2=O)cc1 [Compound 9]
IN: Sequence the entries by Ki, beginning with the highest number. Write the labels out in the order the request specifies.
OUT: R, P, Q

[A] CC(=NNC(=O)CSc1nc2ccccc2c(=O)n1CCc1ccc(S(N)(=O)=O)cc1)c1ccc(N)cc1 [Compound 19]
[B] CC(=NNC(=O)CSc1nc2ccccc2c(=O)n1CCc1ccc(S(N)(=O)=O)cc1)c1ccc(Br)cc1 [Compound 20]
IN: Lab note: check whether A or B shows the higher recorded Ki. // caller expects the label of the chosen entry
OUT: B

[P] NS(=O)(=O)c1ccc(CCn2c(SCC(=O)NN=Cc3ccccc3F)nc3ccccc3c2=O)cc1 [Compound 10]
[Q] NS(=O)(=O)c1ccc(CCn2c(SCC(=O)NN=Cc3ccc(Cl)c(Cl)c3)nc3ccccc3c2=O)cc1 [Compound 8]
IN: Lab note: check whether P or Q shows the higher recorded Ki. // caller expects the label of the chosen entry
OUT: Q
(Q: 1830 nM, P: 274 nM)

[I] NS(=O)(=O)c1ccc(CCn2c(S)nc3ccccc3c2=O)cc1 [Compound 1]
[II] CC(=NNC(=O)CSc1nc2ccccc2c(=O)n1CCc1ccc(S(N)(=O)=O)cc1)c1cccnc1 [Compound 27]
IN: Lab note: check whether I or II shows the higher recorded Ki. // caller expects the label of the chosen entry
OUT: II

* * *

# Test System: UniProt Q16790
# Test Method Notes: hCA IX inhibition, stopped-flow assay
# Assay type: biochemical
# Setup Conditions: selectivity index (SI), ratio of Ki hCA I to Ki hCA IX
Endpoint Label: Selectivity Analysis hCA I/IX

NS(=O)(=O)c1ccc(CCn2c(SCC(=O)NN=Cc3c(Cl)cccc3Cl)nc3ccccc3c2=O)cc1 [Compound 9] :: 45.85

[P] NS(=O)(=O)c1ccc(CCn2c(SCC(=O)NN=Cc3ccccc3Cl)nc3ccccc3c2=O)cc1 [Compound 5]
[Q] NS(=O)(=O)c1ccc(CCn2c(SCC(=O)NN=Cc3cccnc3)nc3ccccc3c2=O)cc1 [Compound 16]
IN: Record comparison, field Selectivity Analysis hCA I/IX: mark the lower of P and Q . // caller expects the label of the chosen entry
OUT: Q
(Q: 5.5, P: 35.6)

* * *

# Test System: hCA II (Homo sapiens)
# Test Method Notes: hCA II inhibition, stopped-flow assay
# Format: biochemical
# Setup Conditions: stopped-flow technique; mean from three different assays, errors ±5–10%
Endpoint Label: Ki (nM)

NS(=O)(=O)c1ccc(CCn2c(SCC(=O)NN=Cc3ccc(F)cc3)nc3ccccc3c2=O)cc1 :: 49.5

[A] NS(=O)(=O)c1ccc(CCn2c(SCC(=O)NN=Cc3ccc(Cl)c(Cl)c3)nc3ccccc3c2=O)cc1
[B] CC(=NNC(=O)CSc1nc2ccccc2c(=O)n1CCc1ccc(S(N)(=O)=O)cc1)c1ccc(F)cc1
[C] NNC(=O)CSc1nc2ccccc2c(=O)n1CCc1ccc(S(N)(=O)=O)cc1
IN: Sequence the entries by Ki, beginning with the highest number. Write the labels out in the order the request specifies.
OUT: A, B, C
(A: 325 nM, B: 39.5 nM, C: 16.9 nM)

* * *

# Test System: hCA XII (Homo sapiens, UniProt O43570)
# Test Method Notes: hCA XII inhibition, stopped-flow assay
# Type: biochemical
# Setup Conditions: selectivity index (SI), ratio of Ki hCA II to Ki hCA XII
Endpoint Label: Selectivity Analysis hCA II/XII

NS(=O)(=O)c1ccc(CCn2c(SCC(=O)NN=Cc3ccc([N+](=O)[O-])cc3)nc3ccccc3c2=O)cc1 :: 7.23

[P] CC(=NNC(=O)CSc1nc2ccccc2c(=O)n1CCc1ccc(S(N)(=O)=O)cc1)c1cccc(Cl)c1
[Q] NS(=O)(=O)c1ccc(CCn2c(SCC(=O)NN=Cc3ccc(Cl)cc3Cl)nc3ccccc3c2=O)cc1
IN: Lab note: check whether P or Q shows the higher recorded Selectivity Analysis hCA II/XII. // caller expects the label of the chosen entry
OUT: P
(P: 7.23, Q: 4.84)

* * *

# Test System: UniProtKB Q16790
# Test Method Notes: hCA IX inhibition, stopped-flow assay
# Assay type: biochemical
# Setup Conditions: selectivity index (SI), ratio of Ki hCA II to Ki hCA IX
Endpoint Label: Selectivity Analysis hCA II/IX

Check out these entries, answers already filled in.
CC(=NNC(=O)CSc1nc2ccccc2c(=O)n1CCc1ccc(S(N)(=O)=O)cc1)c1ccccc1N :: 0.96
CN(C)c1ccc(C=NNC(=O)CSc2nc3ccccc3c(=O)n2CCc2ccc(S(N)(=O)=O)cc2)cc1 :: 0.92
Cc1ccccc1C=NNC(=O)CSc1nc2ccccc2c(=O)n1CCc1ccc(S(N)(=O)=O)cc1 :: 2.34
CC(=NNC(=O)CSc1nc2ccccc2c(=O)n1CCc1ccc(S(N)(=O)=O)cc1)c1ccccn1 :: 0.33
NNC(=O)CSc1nc2ccccc2c(=O)n1CCc1ccc(S(N)(=O)=O)cc1 :: 0.32

[P] CC(=NNC(=O)CSc1nc2ccccc2c(=O)n1CCc1ccc(S(N)(=O)=O)cc1)c1ccc(Cl)cc1
[Q] CC(=NNC(=O)CSc1nc2ccccc2c(=O)n1CCc1ccc(S(N)(=O)=O)cc1)c1ccc(N)cc1
IN: Lab note: check whether P or Q shows the higher recorded Selectivity Analysis hCA II/IX. // caller expects the label of the chosen entry
OUT: Q
(Q: 10.22, P: 2.41)

[I] NS(=O)(=O)c1ccc(CCn2c(SCC(=O)NN=Cc3ccccc3F)nc3ccccc3c2=O)cc1
[II] NS(=O)(=O)c1ccc(CCn2c(SCC(=O)NN=Cc3ccccc3[N+](=O)[O-])nc3ccccc3c2=O)cc1
[III] CC(=NNC(=O)CSc1nc2ccccc2c(=O)n1CCc1ccc(S(N)(=O)=O)cc1)c1cccc(Cl)c1
IN: Hey, can you sort those compounds up there by Selectivity Analysis hCA II/IX, smallest first? Write the labels out in the order the request specifies.
OUT: I, III, II

[P] NS(=O)(=O)c1ccc(CCn2c(SCC(=O)NN=Cc3c(Cl)cccc3Cl)nc3ccccc3c2=O)cc1
[Q] NS(=O)(=O)c1ccc(CCn2c(SCC(=O)NN=Cc3cccnc3)nc3ccccc3c2=O)cc1
[R] CC(=NNC(=O)CSc1nc2ccccc2c(=O)n1CCc1ccc(S(N)(=O)=O)cc1)c1ccc(F)cc1
IN: Hey, can you sort those compounds up there by Selectivity Analysis hCA II/IX, smallest first? Write the labels out in the order the request specifies.
OUT: Q, R, P

* * *

# Test System: hCA I (Homo sapiens, UniProt P00915)
# Test Method Notes: hCA I inhibition, stopped-flow assay
# Format: biochemical
# Setup Conditions: stopped-flow technique; mean from three different assays, errors ±5–10%
Endpoint Label: Ki (nM)

Check out these entries, answers already filled in.
CC(=NNC(=O)CSc1nc2ccccc2c(=O)n1CCc1ccc(S(N)(=O)=O)cc1)c1ccccc1N :: 824
CC(=NNC(=O)CSc1nc2ccccc2c(=O)n1CCc1ccc(S(N)(=O)=O)cc1)c1ccccn1 :: 52.8
NS(=O)(=O)c1ccc(CCn2c(SCC(=O)NN=Cc3ccccc3Cl)nc3ccccc3c2=O)cc1 :: 940

[I] NS(=O)(=O)c1ccc(CCn2c(SCC(=O)NN=Cc3cccnc3)nc3ccccc3c2=O)cc1
[II] NS(=O)(=O)c1ccc(CCn2c(SCC(=O)NN=Cc3ccc(Cl)cc3Cl)nc3ccccc3c2=O)cc1
[III] CC(=NNC(=O)CSc1nc2ccccc2c(=O)n1CCc1ccc(S(N)(=O)=O)cc1)c1ccc(C)cc1
IN: Hey, can you sort those compounds up there by Ki, smallest first? Write the labels out in the order the request specifies.
OUT: I, III, II
